test details: Clinical study in healthy adult subjects: pharmacokinetics
Format: in vivo, human
condition parameters: human, plasma, po, 30 mg, single oral dose 30 mg, mean (%CV), read-out: AUC(0-t)
metric: AUC(0-t) (ng·h/mL)
Numbers only, in ng·h/mL.

input: Report AUC(0-t), nothing else, for this compound: C[C@H](Nc1ncnc2[nH]cnc12)c1cc2cccc(Cl)c2c(=O)n1-c1ccccc1 [Compound 292]
output: 3380

* * *

test details: Clinical study in healthy adult subjects: pharmacokinetics
Type: in vivo, human
condition parameters: human, plasma, po, 30 mg, single oral dose 30 mg, mean (%CV), read-out: AUC(0-24)
metric: AUC(0-t) (ng·h/mL)
Give bare numbers, in ng·h/mL.

input: Report AUC(0-t), nothing else, for this compound: "C[C@H](Nc1ncnc2[nH]cnc12)c1cc2cccc(Cl)c2c(=O)n1-c1ccccc1"
output: 3260
